- System: Salmonella typhimurium TA1537
- experimental.details: Ames test (reverse mutation test), TA1537
- Type: cell-based
- condition.info: TA1537, +S9 mix, 5000 µg/plate
- Description: The solvent used herein was dimethyl sulfoxide (DMSO, 100 µL/plate). The mixtures were preincubated at 37° C. for 20 minutes while shaking. […] Two plates per treatment were used.
property.measured: Number of revertant colonies
# answer = number (no unit)

Entry CC(C)(OCc1cc(F)cc(-c2cc(N)nn2-c2ccc(F)cc2)c1)C(F)(F)F [Metabolite D] , Number of revertant colonies reported as 24

Entry Nc1cc(-c2cc(F)cc(OC(F)(F)F)c2)n(-c2cncc(C(F)(F)F)c2)n1 [Metabolite 5] , Number of revertant colonies reported as 1

Entry CC(C)(C)Oc1cccc(-c2cc(N)nn2-c2ccccc2)c1 [Metabolite C] , Number of revertant colonies reported as 5

Entry CC(C)(C)Oc1cc(F)cc(-c2cc(N)nn2C(F)(F)F)c1 [Metabolite 1] , Number of revertant colonies reported as 0
